# credit: patent US20140377253A1

biological target: FcγRIIIA expressed on cells (UniProt P08637 17-254); assay: FACS
Sequence (P08637 17-254): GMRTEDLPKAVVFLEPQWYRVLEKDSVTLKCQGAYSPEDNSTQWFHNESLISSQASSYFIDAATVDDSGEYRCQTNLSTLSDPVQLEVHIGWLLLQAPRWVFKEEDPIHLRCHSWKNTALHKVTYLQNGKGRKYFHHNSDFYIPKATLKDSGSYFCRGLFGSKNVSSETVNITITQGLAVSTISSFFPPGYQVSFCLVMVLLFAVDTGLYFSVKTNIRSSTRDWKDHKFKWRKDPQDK
Form field: EC50 (one value per entry).
measurementName: EC50 (nM)

[[record]]
binder = "V273L (protein) APELLGGPSVFLFPPKPKDTLMISRTPEVTCVVVDVSHEDPELKFNWYVDGVEVHNAKTKPREEQYNSTYRVVSVLTVLHQDWLNGKEYKCKVSNKALPAPIEKTISKAK"
measurementname = "EC50"
unitspec = "nM"
obsvalue = 0.69

[[record]]
binder = "V273M (protein) APELLGGPSVFLFPPKPKDTLMISRTPEVTCVVVDVSHEDPEMKFNWYVDGVEVHNAKTKPREEQYNSTYRVVSVLTVLHQDWLNGKEYKCKVSNKALPAPIEKTISKAK"
measurementname = "EC50"
unitspec = "nM"
obsvalue = 1.59

[[record]]
binder = "V266L (protein) APELLGGPSVFLFPPKPKDTLMISRTPEVTCVVVDLSHEDPEVKFNWYVDGVEVHNAKTKPREEQYNSTYRVVSVLTVLHQDWLNGKEYKCKVSNKALPAPIEKTISKAK"
measurementname = "EC50"
unitspec = "nM"
obsvalue = 0.76

[[record]]
binder = "V273E (protein) APELLGGPSVFLFPPKPKDTLMISRTPEVTCVVVDVSHEDPEEKFNWYVDGVEVHNAKTKPREEQYNSTYRVVSVLTVLHQDWLNGKEYKCKVSNKALPAPIEKTISKAK"
measurementname = "EC50"
unitspec = "nM"
obsvalue = 1.78

[[record]]
binder = "V273S (protein) APELLGGPSVFLFPPKPKDTLMISRTPEVTCVVVDVSHEDPESKFNWYVDGVEVHNAKTKPREEQYNSTYRVVSVLTVLHQDWLNGKEYKCKVSNKALPAPIEKTISKAK"
measurementname = "EC50"
unitspec = "nM"
obsvalue = 1.33

[[record]]
binder = "V273Y (protein) APELLGGPSVFLFPPKPKDTLMISRTPEVTCVVVDVSHEDPEYKFNWYVDGVEVHNAKTKPREEQYNSTYRVVSVLTVLHQDWLNGKEYKCKVSNKALPAPIEKTISKAK"
measurementname = "EC50"
unitspec = "nM"
obsvalue = 3.19

[[record]]
binder = "V263L (protein) APELLGGPSVFLFPPKPKDTLMISRTPEVTCVLVDVSHEDPEVKFNWYVDGVEVHNAKTKPREEQYNSTYRVVSVLTVLHQDWLNGKEYKCKVSNKALPAPIEKTISKAK"
measurementname = "EC50"
unitspec = "nM"
obsvalue = 1.52

[[record]]
binder = "V305W (protein) APELLGGPSVFLFPPKPKDTLMISRTPEVTCVVVDVSHEDPEVKFNWYVDGVEVHNAKTKPREEQYNSTYRVVSWLTVLHQDWLNGKEYKCKVSNKALPAPIEKTISKAK"
measurementname = "EC50"
unitspec = "nM"
obsvalue = 0.74

